Catalogue of compounds with associated Log D7.4
Assay text: Distribution coefficient log D at pH 7.4
Type: physicochemical
Setup conditions: pH 7.4, n = 3
Observation type: Log D7.4

[
  {
    "Smiles input": "Cc1c(COc2cc(OCc3cncc(C#N)c3)c(CN(C)CC(=O)NCC(S(=O)(=O)O)S(=O)(=O)O)cc2Cl)cccc1-c1cccc(OCc2cn(CCCN3CCN(C(=O)CN4CCN(CC(=O)O)CCN(CC(=O)O)CCN(CC(=O)O)CC4)CC3)nn2)c1C",
    "Value reported": "−2.99"
  },
  {
    "Smiles input": "Cc1c(COc2cc(OCc3cncc(S(C)(=O)=O)c3)c(CN(C)CC(=O)NCC(S(=O)(=O)O)S(=O)(=O)O)cc2Cl)cccc1-c1cccc(OCc2cn(CCCN3CCN(C(=O)CN4CCN(CC(=O)O)CCN(CC(=O)O)CCN(CC(=O)O)CC4)CC3)nn2)c1C",
    "Value reported": "−3.14"
  },
  {
    "Smiles input": "Cc1c(COc2cc(OCc3cncc(C#N)c3)c(CN(C)CC(=O)NCC(S(=O)(=O)O)S(=O)(=O)O)cc2I)cccc1-c1cccc(OCc2cn(CCCN3CCN(C(=O)CN4CCN(CC(=O)O)CCN(CC(=O)O)CCN(CC(=O)O)CC4)CC3)nn2)c1C",
    "Value reported": "−2.89"
  },
  {
    "Smiles input": "Cc1c(COc2cc(OCc3cncc(S(C)(=O)=O)c3)c(CN[C@@H](CS(=O)(=O)O)C(=O)NCCS(=O)(=O)O)cc2Cl)cccc1-c1cccc(OCc2cn(CCCN3CCN(C(=O)[C@H](CS(=O)(=O)O)NC(=O)CC[C@H](C(=O)O)N4CCN(CC(=O)O)CCN(CC(=O)O)CC4)CC3)nn2)c1C",
    "Value reported": "−3.80"
  },
  {
    "Smiles input": "CN(CC(=O)NCC(S(=O)(=O)O)S(=O)(=O)O)Cc1cc(Cl)c(OCc2cccc(-c3cccc(OCc4cn(CCOCCOCCN5CCN(C(=O)CN6CCN(CC(=O)O)CCN(CC(=O)O)CCN(CC(=O)O)CC6)CC5)nn4)c3)c2Br)cc1OCc1cncc(S(C)(=O)=O)c1",
    "Value reported": "−3.47"
  }
]
